Molecular target: CD137 on Jurkat reporter cells (Promega kit CS196005) (UniProt Q07011)
Sequence (Q07011 24-255 limits assumed): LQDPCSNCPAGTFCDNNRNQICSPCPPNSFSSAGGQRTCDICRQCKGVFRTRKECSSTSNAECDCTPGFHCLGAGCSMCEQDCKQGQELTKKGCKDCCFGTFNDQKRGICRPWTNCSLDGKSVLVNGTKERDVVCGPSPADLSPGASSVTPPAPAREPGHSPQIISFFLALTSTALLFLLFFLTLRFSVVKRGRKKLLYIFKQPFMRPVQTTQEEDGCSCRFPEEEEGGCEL
Test: cell-based or functional assay
Starred links: 1 amine or outer side, 2 acyl side, 3 side chain; linkers in the order of their positions; H or OH if unused. Positions of bridges follow the written chain, without caps; N, C: chain ends. Non-standard residues stand in square brackets, D forms with d. Chains are numbered I, II in the order given. No end group written: not given here. *: point of attachment. TATA = O=C(CC[*:1])N1CN(C(=O)CC[*:2])CN(C(=O)CC[*:3])C1; Hyp = O=C(O)[C@@H]1C[C@@H](O)CN1; hArg = N=C(N)NCCCC[C@H](N)C(=O)O; tBuAla = CC(C)(C)C[C@H](N)C(=O)O; Nle = CCCC[C@H](N)C(=O)O; Pent4ynoyl = C#CCCC(=O)*
measurement.name: Fold Improvement over BCY9173, EC50, PC3 (fold)

Use these answered entries as a reference point.
Record request: Fold Improvement over BCY9173, EC50, PC3 value, item BCY14051 (BCY8928: Ac-(SEQ ID NO: 11)-A; TATA; linker at dLys(PYA)4; BCY13919: A[HArg]D-(SEQ ID NO: 158); TATA; linker at N-terminus) peptide 1: AXDCXLVNPLCLXPDWXC peptide 2: CXPEXPYCFADPYXCA
3.15

Moving on to BCY14334 (linker I:4-I:11-I:18 via TATA; linker II:1-II:8-II:15 via TATA (inferred); not fully specified (some residues); also: N-(acid-PEG3)-N-bis(PEG3-azide) linker at chain 1 N-terminus, joined to dLys(PYA)4 of two BCY8928 chains (1:2 complex)) peptide 1: A[hArg]DC[Hyp]LVNPLCLKP[dD]W[hArg]C peptide 2: Ac-C[tBuAla]PE[dK](Pent4ynoyl)PYCFADPY[Nle]CA
7.21

P. BCY14052 (BCY8928: Ac-(SEQ ID NO: 11)-A; TATA; linker at dLys(PYA)4; BCY13920: A[HArg]D-(SEQ ID NO: 159); TATA; linker at N-terminus) peptide 1: AXDCXLVNPLCLFPDWXC peptide 2: CXPEXPYCFADPYXCA
Q. BCY14050 (BCY8928: Ac-(SEQ ID NO: 11)-A; TATA; linker at dLys(PYA)4; BCY13918: A[HArg]D-(SEQ ID NO: 157); TATA; linker at N-terminus) peptide 1: AXDCXLVNPLCLXPDWXC peptide 2: CXPEXPYCFADPYXCA
Just tell me: smaller Fold Improvement over BCY9173, EC50, PC3 value, P or Q ? Kindly state the label of the option you pick.
Q
